Test: Pharmacokinetic study iv/po
Format: in vivo
Conditions: plasma; Dose iv/po 5/10 mg/kg
reported-endpoint: AUC (ng·h/mL)
Use ng·h/mL as the unit, but write only the number.

Quick one: AUC for CN(c1ccccc1)c1ccc2c(c1)CCC[C@H]2CNc1cnccc1C(=O)O [Compound I] ?
10400

* * *

Biological target: KDM6A (Homo sapiens, UniProt O15550)
Sequence (O15550 whole entry): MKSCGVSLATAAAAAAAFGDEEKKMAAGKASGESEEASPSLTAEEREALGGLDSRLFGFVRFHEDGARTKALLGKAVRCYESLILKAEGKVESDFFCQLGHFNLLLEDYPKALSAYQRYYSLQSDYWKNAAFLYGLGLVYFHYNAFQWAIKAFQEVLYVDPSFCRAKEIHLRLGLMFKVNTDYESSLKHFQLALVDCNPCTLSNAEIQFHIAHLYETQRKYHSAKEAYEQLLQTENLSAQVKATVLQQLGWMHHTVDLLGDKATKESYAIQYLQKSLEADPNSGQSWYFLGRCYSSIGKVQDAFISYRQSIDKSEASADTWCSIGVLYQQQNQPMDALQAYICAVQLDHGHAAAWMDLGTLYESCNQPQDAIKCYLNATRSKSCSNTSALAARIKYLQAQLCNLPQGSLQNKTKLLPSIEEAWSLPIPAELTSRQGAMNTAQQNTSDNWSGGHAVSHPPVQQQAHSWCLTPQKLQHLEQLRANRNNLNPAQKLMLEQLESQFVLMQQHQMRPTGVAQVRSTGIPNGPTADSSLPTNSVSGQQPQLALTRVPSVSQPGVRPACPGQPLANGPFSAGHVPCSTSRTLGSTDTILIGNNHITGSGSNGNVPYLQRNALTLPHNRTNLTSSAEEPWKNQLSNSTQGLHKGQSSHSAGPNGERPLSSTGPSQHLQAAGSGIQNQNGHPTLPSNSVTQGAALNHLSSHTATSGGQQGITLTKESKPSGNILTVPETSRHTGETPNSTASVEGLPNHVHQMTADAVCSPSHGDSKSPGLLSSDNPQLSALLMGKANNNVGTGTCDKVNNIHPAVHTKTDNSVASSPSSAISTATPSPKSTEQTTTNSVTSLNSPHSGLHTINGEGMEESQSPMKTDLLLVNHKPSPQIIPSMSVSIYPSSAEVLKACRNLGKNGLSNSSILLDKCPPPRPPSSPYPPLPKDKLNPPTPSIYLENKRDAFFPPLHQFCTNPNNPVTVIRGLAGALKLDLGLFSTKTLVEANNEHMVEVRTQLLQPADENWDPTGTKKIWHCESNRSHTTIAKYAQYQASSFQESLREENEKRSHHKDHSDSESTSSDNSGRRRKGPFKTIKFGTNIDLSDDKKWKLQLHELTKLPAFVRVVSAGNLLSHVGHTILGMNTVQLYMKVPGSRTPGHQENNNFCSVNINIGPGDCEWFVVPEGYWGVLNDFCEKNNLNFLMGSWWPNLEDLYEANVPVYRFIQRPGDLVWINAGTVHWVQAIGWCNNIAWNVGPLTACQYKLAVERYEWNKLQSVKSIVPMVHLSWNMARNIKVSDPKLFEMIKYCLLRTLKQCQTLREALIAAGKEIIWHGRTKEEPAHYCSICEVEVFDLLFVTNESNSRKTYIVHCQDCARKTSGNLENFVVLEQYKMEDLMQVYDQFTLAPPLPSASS
pIC50: −log10 of the molar value.
reported-endpoint: pIC50

Find the measured pIC50: item CN(c1ccccc1)c1ccc2c(c1)CCC[C@H]2CNc1cnccc1C(=O)O , target or system KDM6A (Homo sapiens, UniProt O15550).
< 5.00

* * *

Molecular target: UniProtKB Q8NHM5
Sequence (Q8NHM5 1-1336): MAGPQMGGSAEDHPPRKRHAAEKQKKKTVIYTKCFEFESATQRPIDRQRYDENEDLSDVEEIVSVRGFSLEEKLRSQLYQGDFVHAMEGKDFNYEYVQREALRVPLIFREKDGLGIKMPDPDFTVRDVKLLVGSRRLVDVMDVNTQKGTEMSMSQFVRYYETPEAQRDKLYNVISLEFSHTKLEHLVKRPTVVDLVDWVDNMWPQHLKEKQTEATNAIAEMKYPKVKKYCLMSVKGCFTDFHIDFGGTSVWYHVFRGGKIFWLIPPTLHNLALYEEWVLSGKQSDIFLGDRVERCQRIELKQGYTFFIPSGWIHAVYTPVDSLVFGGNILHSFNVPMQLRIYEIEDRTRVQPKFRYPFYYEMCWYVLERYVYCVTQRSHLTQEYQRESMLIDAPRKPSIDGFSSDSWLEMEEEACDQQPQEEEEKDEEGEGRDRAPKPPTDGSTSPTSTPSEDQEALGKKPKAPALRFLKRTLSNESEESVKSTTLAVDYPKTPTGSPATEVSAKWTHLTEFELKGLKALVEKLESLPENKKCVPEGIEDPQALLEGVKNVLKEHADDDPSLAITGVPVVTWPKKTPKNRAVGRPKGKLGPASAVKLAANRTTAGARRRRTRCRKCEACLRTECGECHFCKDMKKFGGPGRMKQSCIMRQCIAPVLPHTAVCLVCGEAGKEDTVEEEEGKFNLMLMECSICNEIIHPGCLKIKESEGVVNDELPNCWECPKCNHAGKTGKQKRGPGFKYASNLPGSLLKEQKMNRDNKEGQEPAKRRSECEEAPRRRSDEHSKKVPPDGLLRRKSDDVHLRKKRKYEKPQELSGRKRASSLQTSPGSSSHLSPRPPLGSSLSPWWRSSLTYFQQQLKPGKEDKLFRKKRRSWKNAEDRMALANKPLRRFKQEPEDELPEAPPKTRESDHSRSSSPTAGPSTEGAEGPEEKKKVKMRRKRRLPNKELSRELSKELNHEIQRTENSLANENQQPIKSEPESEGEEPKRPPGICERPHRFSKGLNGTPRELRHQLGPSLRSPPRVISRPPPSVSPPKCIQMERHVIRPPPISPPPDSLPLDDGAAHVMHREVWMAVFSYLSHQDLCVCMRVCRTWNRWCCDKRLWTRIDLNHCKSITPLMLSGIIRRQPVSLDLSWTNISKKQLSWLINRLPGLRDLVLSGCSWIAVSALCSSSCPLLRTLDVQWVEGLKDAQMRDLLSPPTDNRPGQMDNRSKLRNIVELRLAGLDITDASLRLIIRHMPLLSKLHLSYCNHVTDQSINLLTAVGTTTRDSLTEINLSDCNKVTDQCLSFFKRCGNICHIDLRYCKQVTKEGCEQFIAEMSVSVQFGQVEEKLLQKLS
reported-endpoint: IC50

Quick one: IC50 for CN(c1ccccc1)c1ccc2c(c1)CCC[C@H]2CNc1cnccc1C(=O)O ?
> 10 µM
